# Measurement protocol: Allosteric inhibition of LEDGF binding to HIV integrase by InLEAD assay
# Design: species or system Human immunodeficiency virus
Please provide measured IC50 for the entries that follow.
Numbers only, in µM.

Smiles str	Property	Measure unit	Measurement
COc1ccc(NC(=O)c2cccc(-c3ccccc3S(=O)(=O)NC(C)(C)C)c2)c(C)c1	IC50	µM	1.91
COc1ccc(NC(=O)c2cccc(-c3ccccc3S(=O)(=O)NC(C)(C)C)c2)cc1	IC50	µM	3.69

Let us examine a further case.
Data request, read-out IC50, for COc1ccc(NC(=O)c2cccc(-c3ccccc3S(=O)(=O)NC3(C)CCC3)c2)cc1
2.23
